Test system: Rattus norvegicus
Assay: Hepatotoxicity in Wistar albino rat assessed as change in serum iron level at 0.5 mg/kg/day, ip administered for 5 days measured after second compound dose
Assay type: toxicity, organism-based
Design: route intraperitoneal
Conditions: in vivo, 120 h
I'd be grateful if you could share measured Activity for these entries.
Note to self: number, then unit, no commentary.

Provide the reported Activity (system: Rattus norvegicus) for `O=c1oc2ccccc2c(O)c1-c1csc(Nc2ccc(S(=O)(=O)O)cc2)n1`
19 µmol/L

Provide the reported Activity (system: Rattus norvegicus) for `CCOC(=O)C(C(=O)OCC)=C(C)c1c(O)c2ccccc2oc1=O`
17.7 µmol/L

Provide the reported Activity (system: Rattus norvegicus) for `Cc1cccc(Nc2nc(-c3c(O)c4ccccc4oc3=O)cs2)c1`
17.3 µmol/L

Provide the reported Activity (system: Rattus norvegicus) for `O=c1oc2ccccc2c(O)c1-c1csc(Nc2cccc([N+](=O)[O-])c2)n1`
17.3 µmol/L

====

System: Plasma
Experiment: Anticoagulant activity in Wistar albino rat plasma assessed as prothrombin time at 0.5 mg/kg/day, ip administered for 5 days measured after second dose
Assay type: functional
Conditions: route intraperitoneal
I'd be grateful if you could share measured PT for these entries.

Please give measured PT of the following entry: `O=c1oc2ccccc2c(O)c1-c1csc(Nc2ccc(S(=O)(=O)O)cc2)n1`
28.6 s

Please give measured PT of the following entry: `O=c1oc2ccccc2c(O)c1-c1csc(Nc2cccc([N+](=O)[O-])c2)n1`
28.1 s

Please give measured PT of the following entry: `CCOC(=O)C(C(=O)OCC)=C(C)c1c(O)c2ccccc2oc1=O`
30 s

Please give measured PT of the following entry: `Cc1cccc(Nc2nc(-c3c(O)c4ccccc4oc3=O)cs2)c1`
28.1 s

====

Test system: Rattus norvegicus
Test: Hepatotoxicity in Wistar albino rat assessed as change in serum iron level at 0.5 mg/kg, ip measured after 24 hrs
Type: toxicity, organism-based
Parameters: dose 0.5 mg/kg, route intraperitoneal
Details: in vivo
I'd be grateful if you could share measured Activity for these entries.
Field format: number, assumed µmol/L, no unit text.

Please give measured Activity of the following entry: `COC(=O)/C(C(C)=O)=C(/C)c1c(O)c2ccccc2oc1=O`
23.9

Please give measured Activity of the following entry: `CCN(CC)c1nc(-c2c(O)c3ccccc3oc2=O)cs1`
25

Please give measured Activity of the following entry: `CC(=O)c1c(O)c2ccccc2oc1=O`
26.1

Please give measured Activity of the following entry: `Cc1cccc(Nc2nc(-c3c(O)c4ccccc4oc3=O)cs2)c1`
28.4

====

Tested on: Rattus norvegicus
Assay: Hepatotoxicity in Wistar albino rat assessed as change in serum bilirubin level at 0.5 mg/kg, ip measured after 24 hrs
Format: toxicity, organism-based
Parameters: dose 0.5 mg/kg, route intraperitoneal
Settings: in vivo
Endpoint name: Activity (µmol/L)
Field format: number, assumed µmol/L, no unit text.

Please give measured Activity of the following entry: `Cc1ccccc1Nc1nc(-c2c(O)c3ccccc3oc2=O)cs1`
1.8

Please give measured Activity of the following entry: `O=c1oc2ccccc2c(O)c1-c1csc(Nc2ccc(S(=O)(=O)O)cc2)n1`
1.6

Please give measured Activity of the following entry: CC(=O)CC(c1ccccc1)c1c(O)c2ccccc2oc1=O (stereo not drawn)
1.3

====

System: Rattus norvegicus
Assay: Hepatotoxicity in Wistar albino rat assessed as change in serum albumin level at 0.5 mg/kg, ip measured after 24 hrs
Assay type: toxicity, organism-based
Parameters: dose 0.5 mg/kg, route intraperitoneal
Settings: in vivo
I'd be grateful if you could share measured Activity for these entries.
Field format: number, assumed g/L, no unit text.

Please give measured Activity of the following entry: `COC(=O)/C(C(C)=O)=C(/C)c1c(O)c2ccccc2oc1=O`
38.9

Please give measured Activity of the following entry: `O=c1oc2ccccc2c(O)c1-c1csc(Nc2cccc([N+](=O)[O-])c2)n1`
39.7

Please give measured Activity of the following entry: `COC(=O)/C=C(/C)c1c(O)c2ccccc2oc1=O`
39

Please give measured Activity of the following entry: `O=c1oc2ccccc2c(O)c1-c1csc(Nc2ccc(S(=O)(=O)O)cc2)n1`
40.8

Please give measured Activity of the following entry: `CC(=O)C(C(C)=O)=C(C)c1c(O)c2ccccc2oc1=O`
40.6
